Data provenance is ChEMBL document CHEMBL2385054.

assay_procedure: in vivo
assay_context: CD1, mouse, plasma, iv, 1 mg/kg
observation_type: clearance
Answer with the number, then the unit.

Form: compound = "O=C(Nc1ccnc(NC(=O)C2CC2)c1)c1c(Cl)cccc1Cl" ; clearance = 65 mL/min/kg

====

assay_procedure: in vitro
assay_context: rat, liver microsomes
observation_type: CLhep predicted

Would you please look over these solved cases?
>>> measured_value("N#Cc1cc(Cl)c(C(=O)Nc2ccnc(NC(=O)[C@H]3C[C@H]3F)c2)c(Cl)c1")
"10 mL/min/kg"
>>> measured_value("N#Cc1cc(Cl)c(C(=O)Nc2ccnc(NC(=O)C3CC3)c2)c(Cl)c1")
"12 mL/min/kg"
>>> measured_value("O=C(Nc1ccnc(NC(=O)[C@H]2C[C@H]2F)c1)c1c(F)cccc1Cl")
"20 mL/min/kg"
>>> measured_value("O=C(Nc1ccnc(NC(=O)[C@H]2C[C@H]2F)c1)c1c(Cl)cccc1Cl")
"21 mL/min/kg"
>>> measured_value("N#Cc1cc(F)c(C(=O)Nc2ccnc(NC(=O)[C@H]3C[C@H]3F)c2)c(Cl)c1")
"11 mL/min/kg"

Form: molecule = "O=C(Nc1ccnc(NC(=O)C2CC2)c1)c1c(Cl)cccc1Cl" ; CLhep predicted = 16 mL/min/kg

====

assay_procedure: in vivo
assay_context: Sprague-Dawley, rat
Please use Criterion met for half-life under 4 h and Criterion not met for everything else, ties included.

These solved cases illustrate the format of a correct answer.
>>> class_name("O=C(Nc1ccnc(NC(=O)[C@H]2C[C@H]2F)c1)c1c(F)cccc1Cl")
"Criterion met"
>>> class_name("O=C(Nc1ccnc(NC(=O)C2CC2)c1)c1c(Cl)cccc1Cl")
"Criterion met"
>>> class_name("N#Cc1cc(Cl)c(C(=O)Nc2ccnc(NC(=O)C3CC3)c2)c(Cl)c1")
"Criterion not met"
>>> class_name("N#Cc1cc(F)c(C(=O)Nc2ccnc(NC(=O)[C@H]3C[C@H]3F)c2)c(Cl)c1")
"Criterion not met"

Now let's try a different one.
Please indicate whether the reported half-life of "O=C(Nc1ccnc(NC(=O)[C@H]2C[C@H]2F)c1)c1c(Cl)cccc1Cl" is strictly below 4 h. Criterion met

====

assay_procedure: in vivo
assay_context: CD1, mouse
observation_type: half-life

>>> measured_value("N#Cc1cc(Cl)c(C(=O)Nc2ccnc(NC(=O)C3CC3)c2)c(Cl)c1")
"60 min"

Form: compound = "O=C(Nc1ccnc(NC(=O)C2CC2)c1)c1c(Cl)cccc1Cl" ; half-life = 18 min

====

assay_procedure: in vitro
assay_context: dog, MDCK
observation_type: Papp A→B (×10⁻⁶ cm/s)
Give bare numbers, in ×10⁻⁶ cm/s.

Give Papp A→B for all molecules that follow.
1. N#Cc1cc(Cl)c(C(=O)Nc2ccnc(NC(=O)[C@H]3C[C@H]3F)c2)c(Cl)c1
2. O=C(Nc1ccnc(NC(=O)[C@H]2C[C@H]2F)c1)c1c(Cl)cccc1Cl
3. N#Cc1cc(F)c(C(=O)Nc2ccnc(NC(=O)[C@H]3C[C@H]3F)c2)c(Cl)c1
4. O=C(Nc1ccnc(NC(=O)C2CC2)c1)c1c(Cl)cccc1Cl
5. N#Cc1cc(Cl)c(C(=O)Nc2ccnc(NC(=O)C3CC3)c2)c(Cl)c1
6. O=C(Nc1ccnc(NC(=O)[C@H]2C[C@H]2F)c1)c1c(F)cccc1Cl

[12, 20, 11, 30, 15, 30]
